Reference source: patent US9274101B2

Test system: HL-60 cells
Assay: HL-60 responses to selected compounds at a range of concentrations
Format: cell-based, human
Conditions: Homo sapiens, HL-60; Conc. 15 mM; read-out: HL-60 Cell Responses to Selected Compounds from PM1 and PM2
Experimental: In this Example, methods for testing unattached cells for their ability to use various concentrations of selected carbon sources are described. The carbon sources used in this Example were identified by the methods disclosed in Example 27. Similarly, HL-60 cells were cultured as described in Example 27. After washing, HL-60 cells were resuspended in DME-R. An aliquot of the cell suspension was counted by trypan blue exclusion and the cell density was adjusted to 6.67×10^5/mL. […]
value type: activity at 15000 µM (%)

{"columns": ["compound", "value observed"],
 "data": [
  ["COC(=O)CCC(=O)O [mono methyl succinate]", 139],
  ["NC(=O)C[C@H](N)C(=O)O", 128],
  ["N[C@@H](Cc1c[nH]cn1)C(=O)O", 123],
  ["Cc1cn([C@H]2C[C@H](O)[C@@H](CO)O2)c(=O)[nH]c1=O", 91.5],
  ["CC(C)[C@H](N)C(=O)O", 122],
  ["O=C[C@H](O)[C@@H](O)[C@@H](O)[C@H](O)C(=O)O", 101],
  ["NC(=O)CC[C@H](N)C(=O)O", 127]
]}

* * *

System: HL-60 cells
Experiment: HL-60 responses to selected compounds at a range of concentrations
Assay type: cell-based, human
Details: Homo sapiens, HL-60; Conc. 0.33 mM; read-out: HL-60 Cell Responses to Selected Compounds from PM1 and PM2

{"columns": ["compound", "activity at 330 µM, %"],
 "data": [
  ["O=C[C@H](O)[C@@H](O)[C@@H](O)[C@H](O)C(=O)O [D-galacturonic acid]", 126],
  ["NC(=O)C[C@H](N)C(=O)O [L-asparagine]", 138],
  ["Cc1cn([C@H]2C[C@H](O)[C@@H](CO)O2)c(=O)[nH]c1=O [Thymidine]", 128],
  ["NC(=O)CC[C@H](N)C(=O)O [L-glutamine]", 162],
  ["N[C@@H](Cc1c[nH]cn1)C(=O)O [L-histidine]", 128],
  ["CC(C)[C@H](N)C(=O)O [L-valine]", 134],
  ["COC(=O)CCC(=O)O [mono methyl succinate]", 133]
]}

* * *

System: Undifferentiated HL-60 cells
Assay: Energy use by undifferentiated HL-60 cells
Format: cell-based, human
Conditions: Homo sapiens, HL-60, 24 h; Conc. 1.00 mM; read-out: Energy Use by Undifferentiated HL-60 Cells
Recorded activity at 1000 µM by entry
value type: activity at 1000 µM

{"columns": ["molecule", "assay target", "value type", "value observed"],
 "data": [
  ["COC(=O)CCC(=O)O [mono methyl succinate]", "Undifferentiated HL-60 cells", "activity at 1000 µM", "141%"],
  ["N[C@@H](Cc1c[nH]cn1)C(=O)O [L-histidine]", "Undifferentiated HL-60 cells", "activity at 1000 µM", "118%"],
  ["CC(C)[C@H](N)C(=O)O [L-valine]", "Undifferentiated HL-60 cells", "activity at 1000 µM", "78.6%"],
  ["O=C[C@H](O)[C@@H](O)[C@@H](O)[C@H](O)C(=O)O [D-galacturonic acid]", "Undifferentiated HL-60 cells", "activity at 1000 µM", "141%"],
  ["Cc1cn([C@H]2C[C@H](O)[C@@H](CO)O2)c(=O)[nH]c1=O [Thymidine]", "Undifferentiated HL-60 cells", "activity at 1000 µM", "90.9%"],
  ["NC(=O)C[C@H](N)C(=O)O [L-asparagine]", "Undifferentiated HL-60 cells", "activity at 1000 µM", "124%"],
  ["NC(=O)CC[C@H](N)C(=O)O [L-glutamine]", "Undifferentiated HL-60 cells", "activity at 1000 µM", "237%"]
]}
